Measured values drawn from patent US11866430B2 for this set.

# subject_of_test: human DGKα (Homo sapiens (Human), UniProt P23743)
# Sequence (P23743 other isoform, or with tags, fused parts or gaps): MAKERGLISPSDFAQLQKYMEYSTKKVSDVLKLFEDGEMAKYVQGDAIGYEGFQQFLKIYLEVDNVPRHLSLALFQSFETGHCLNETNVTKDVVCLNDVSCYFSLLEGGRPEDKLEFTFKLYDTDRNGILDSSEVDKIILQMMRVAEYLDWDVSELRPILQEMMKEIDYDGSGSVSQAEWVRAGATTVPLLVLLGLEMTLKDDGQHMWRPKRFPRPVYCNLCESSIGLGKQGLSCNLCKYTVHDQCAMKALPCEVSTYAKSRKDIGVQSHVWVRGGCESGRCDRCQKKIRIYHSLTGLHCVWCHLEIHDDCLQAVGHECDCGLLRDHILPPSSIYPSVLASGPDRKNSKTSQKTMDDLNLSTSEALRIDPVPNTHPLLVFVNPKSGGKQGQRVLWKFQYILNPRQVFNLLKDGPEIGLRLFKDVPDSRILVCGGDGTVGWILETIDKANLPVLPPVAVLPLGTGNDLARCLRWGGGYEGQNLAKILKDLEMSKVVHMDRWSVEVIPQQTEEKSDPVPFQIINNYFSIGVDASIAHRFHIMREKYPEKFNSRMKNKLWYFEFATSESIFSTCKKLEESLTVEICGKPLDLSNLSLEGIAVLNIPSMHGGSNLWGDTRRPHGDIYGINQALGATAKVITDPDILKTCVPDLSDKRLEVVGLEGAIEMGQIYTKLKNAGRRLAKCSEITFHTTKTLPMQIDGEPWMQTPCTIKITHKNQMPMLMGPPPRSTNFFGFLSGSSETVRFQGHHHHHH
# assay_comment: biochemical
# measurement_conditions: detergent/lipid micelle substrate; read-out: DGKα IC50
pIC50: −log10 of the molar value.
pIC50 values by entry
outcome_measure: pIC50

# compound, number
measured = [
    ("Cn1c(=O)c(C#N)c(N2CCN(Cc3ccc(Cl)c(O)c3)CC2)c2nc(Cl)ccc21", 6.85),
    ("CC(c1ccc(F)cc1)N1CCN(c2c([N+](=O)[O-])c(=O)n(C)c3ccc(C#N)nc23)CC1 (single isomer, unassigned) [Example 45]", 7.00),
    ("Cn1c(=O)c(C#N)c(N2CCN(C(c3ccc(F)cc3)c3ccc(F)cc3)CC2)c2nc(Cl)ccc21", 6.16),
    ("Cn1c(=O)c([N+](=O)[O-])c(N2CCN(C(CO)c3ccc(F)cc3)CC2)c2nc(C#N)ccc21 (stereo not shown)", 5.74),
]

----------
# subject_of_test: human DGKζ (Homo sapiens (Human), UniProt Q13574)
# Sequence (Q13574 other isoform, or with tags, fused parts or gaps): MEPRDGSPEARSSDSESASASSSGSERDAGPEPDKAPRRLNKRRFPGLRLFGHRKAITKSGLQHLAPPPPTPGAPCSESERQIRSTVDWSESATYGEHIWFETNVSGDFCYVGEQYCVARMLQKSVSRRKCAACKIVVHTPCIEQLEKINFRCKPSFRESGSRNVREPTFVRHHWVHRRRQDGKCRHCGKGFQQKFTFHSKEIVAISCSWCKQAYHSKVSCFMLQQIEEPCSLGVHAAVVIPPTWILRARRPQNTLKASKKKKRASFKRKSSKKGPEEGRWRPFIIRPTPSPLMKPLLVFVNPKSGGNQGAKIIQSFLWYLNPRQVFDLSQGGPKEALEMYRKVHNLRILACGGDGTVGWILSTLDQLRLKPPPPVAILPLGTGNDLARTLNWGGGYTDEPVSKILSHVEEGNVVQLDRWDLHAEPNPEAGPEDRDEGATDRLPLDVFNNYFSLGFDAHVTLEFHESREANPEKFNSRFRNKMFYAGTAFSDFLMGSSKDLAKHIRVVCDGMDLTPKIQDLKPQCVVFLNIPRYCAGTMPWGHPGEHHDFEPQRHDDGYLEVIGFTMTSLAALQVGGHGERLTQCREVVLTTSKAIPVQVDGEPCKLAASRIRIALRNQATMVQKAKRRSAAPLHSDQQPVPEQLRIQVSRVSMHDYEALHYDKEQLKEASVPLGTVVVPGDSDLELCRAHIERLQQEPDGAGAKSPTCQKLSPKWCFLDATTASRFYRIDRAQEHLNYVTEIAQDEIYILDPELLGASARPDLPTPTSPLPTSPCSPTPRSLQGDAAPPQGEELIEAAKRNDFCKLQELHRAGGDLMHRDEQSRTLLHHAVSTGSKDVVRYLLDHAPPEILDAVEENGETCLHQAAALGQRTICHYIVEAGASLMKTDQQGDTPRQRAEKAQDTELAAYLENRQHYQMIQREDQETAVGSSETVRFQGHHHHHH
# assay_comment: DGKζ assay (detergent/lipid micelle substrate)
# Assay type: biochemical
# measurement_conditions: detergent/lipid micelle substrate; read-out: DGKζ IC50

# molecule, IC50
data = [
    ("Cc1ccc(CN2CCN(c3c(C#N)c(=O)n(C)c4ccc(Cl)nc34)CC2)c(F)c1 [Example 423]", "> 81 µM"),
    ("CC(c1ccc(F)cc1)N1CCN(c2c(C#N)c(=O)n(C)c3ccc(Br)nc23)CC1 (racemic) [Example 22]", "> 81 µM"),
    ("Cn1c(=O)c(C#N)c(N2CCN(Cc3cc(OC(F)(F)F)ccc3O)CC2)c2nc(Cl)ccc21 [Example 369]", "> 240 µM"),
    ("Cn1c(=O)c([N+](=O)[O-])c(N2CCN(C3(c4ccc(F)cc4)CC3)CC2)c2nc(C#N)ccc21 [Example 342]", "> 240 µM"),
    ("Cn1c(=O)c(C#N)c(N2CCN(Cc3ccccc3NC(=O)Nc3ccccc3)CC2)c2nc(Br)ccc21 [Example 214]", "> 81 µM"),
    ("Cn1c(=O)c(C#N)c(N2CCN(Cc3ccccc3NC(=O)OC(C)(C)C)CC2)c2nc(Br)ccc21 [Example 284]", "> 240 µM"),
    ("Cn1c(=O)c(C#N)c(N2CCN(C3(c4ccc(F)cc4)CC3)CC2)c2nc(Cl)ccc21 [Example 421]", "> 240 µM"),
    ("CN(C)C(=O)c1ccc2c(n1)c(N1CCN(C(c3ccc(F)cc3)c3ccc(F)cc3)CC1)c(C#N)c(=O)n2C [Example 231]", "> 240 µM"),
]

----------
// reported IC50 per item
# subject_of_test: human DGKζ (Homo sapiens (Human), UniProt Q13574)
# assay_comment: DGKζ assay (detergent/lipid micelle substrate)
# Format: biochemical
# measurement_conditions: detergent/lipid micelle substrate; read-out: DGKζ IC50
# Procedure: The DGKα and DGKζ reactions were performed using either extruded liposome (DGKα and DGKζ LIPGLO assays) or detergent/lipid micelle substrate (DGKα and DGKζ assays). […] The compound inhibition studies were carried out as follows: 50 nL droplets of each test compound (top concentration 10 mM with 11 point, 3-fold dilution series for each compound) solubilized in DMSO were transferred to wells of a white 1536 well plate (Corning 3725). […] Luminescence was recorded using an EnVision microplate reader. […]

# compound, IC50
rows = [
    ("Cn1c(=O)c(C(=O)C(F)(F)F)c(N2CCN(C(c3ccc(F)cc3)c3ccc(F)cc3)CC2)c2ncccc21 [Example 227]", "> 240 µM"),
    ("CC(c1ccc(F)cc1)N1CCN(c2c(C#N)c(=O)n(C)c3ccc(Br)nc23)CC1 (single isomer, unassigned) [Example 23]", "> 240 µM"),
    ("Cn1c(=O)c(C#N)c(N2CCN(Cc3c(O)cccc3F)CC2)c2nc(Cl)ccc21 [Example 280]", "> 240 µM"),
    ("COCCn1c(=O)c([N+](=O)[O-])c(N2CCN(C(c3ccccc3)c3ccccc3)CC2)c2ncccc21 [Example 244]", "> 81 µM"),
    ("Cn1c(=O)c(C#N)c(N2CCN(Cc3cc(Br)ccc3O)CC2)c2nc(Br)ccc21 [Example 282]", "> 240 µM"),
    ("Cn1c(=O)c(C#N)c(N2CCN(Cc3ccc(Cl)cc3)CC2)c2nc(Cl)ccc21 [Example 417]", "> 240 µM"),
    ("Cn1c(=O)c(C#N)c(N2CCN(Cc3ccccc3)CC2)c2nc(Cl)ccc21 [Example 343]", "> 81 µM"),
    ("C#CCn1c(=O)c([N+](=O)[O-])c(N2CCN(C(c3ccc(F)cc3)c3ccc(F)cc3O)CC2)c2nc(C#N)ccc21 (single isomer, unassigned) [Example 120]", "> 81 µM"),
    ("COc1ccccc1C(c1ccc(F)cc1)N1CCN(c2c(C#N)c(=O)n(C)c3ccc(Br)nc23)CC1 (stereo not drawn) [Example 12]", "> 81 µM"),
]

----------
# Lookup of reported IC50 keyed by entry
# subject_of_test: human DGKα (Homo sapiens (Human))
# assay_comment: biochemical
# measurement_conditions: detergent/lipid micelle substrate; read-out: DGKα IC50

# molecule, IC50, nM
data = [
    ("Cn1c(=O)c(C#N)c(N2CCN(Cc3cc(F)cc(F)c3O)CC2)c2nc(Cl)ccc21", 830),
    ("Cn1c(=O)c(C#N)c(N2CCN(Cc3ccc(Cl)cc3Cl)CC2)c2nc(Cl)ccc21", 970),
    ("Cn1c(=O)c(C#N)c(N2CCN(Cc3ccccc3NC(=O)OC(C)(C)C)CC2)c2nc(Br)ccc21", 1000),
    ("Cn1c(=O)c([N+](=O)[O-])c(N2CCN(C(c3ccc(F)cc3)C3CC3)CC2)c2nc(C#N)ccc21 (single isomer, unassigned)", 990),
    ("COc1ccccc1C(c1ccc(F)cc1)N1CCN(c2c([N+](=O)[O-])c(=O)n(C)c3ccc(C#N)nc23)CC1 (single isomer, unassigned) [Example 19]", 13000),
    ("C#CCn1c(=O)c(C#N)c(N2CCN(Cc3c(C)cc(C)cc3O)CC2)c2nc(Br)ccc21", 1300),
]

----------
# subject_of_test: human DGKα (Homo sapiens (Human))
# assay_comment: biochemical
# measurement_conditions: detergent/lipid micelle substrate; read-out: DGKα IC50
# Experimental: The DGKα and DGKζ reactions were performed using either extruded liposome (DGKα and DGKζ LIPGLO assays) or detergent/lipid micelle substrate (DGKα and DGKζ assays). […] The compound inhibition studies were carried out as follows: 50 nL droplets of each test compound (top concentration 10 mM with 11 point, 3-fold dilution series for each compound) solubilized in DMSO were transferred to wells of a white 1536 well plate (Corning 3725). […] Luminescence was recorded using an EnVision microplate reader. […]
Consider the following compounds and their measured IC50 readings.

# compound, IC50 / nM
measured = [
    ("C#CCn1c(=O)c(C#N)c(N2CCN(Cc3ccccc3O)CC2)c2nc(Br)ccc21 [Example 65]", 290),
    ("Cc1cc(F)cc(CN2CCN(c3c(C#N)c(=O)n(C)c4ccc(Cl)nc34)CC2)c1 [Example 290]", 2200),
    ("Cc1ccccc1C(c1ccccc1O)N1CCN(c2c([N+](=O)[O-])c(=O)n(C)c3ccc(Br)nc23)CC1 (stereo not drawn) [Example 73]", 900),
    ("Cn1c(=O)c(C#N)c(N2CCN(Cc3cccc4c3NCC4)CC2)c2nc(Br)ccc21 [Example 299]", 570),
    ("COc1ccc2c(c1)C(N1CCN(c3c(C#N)c(=O)n(C)c4ccc(Br)nc34)CC1)CC2 (stereo not drawn) [Example 21]", 22000),
    ("C#CCn1c(=O)c([N+](=O)[O-])c(N2CCN(C(c3ccc(F)cc3)c3ccc(F)cc3)CC2)c2nc(C#N)ccc21 [Example 118]", 4200),
    ("C#CCOc1ccccc1C(c1ccc(F)cc1)N1CCN(c2c(C#N)c(=O)n(C)c3ccc(Cl)nc23)CC1 (stereo not drawn) [Example 39]", 50000),
    ("Cc1cc(CN2CCN(c3c(C#N)c(=O)n(C)c4ccc(Cl)nc34)CC2)ccc1O [Example 356]", 300),
    ("CCC(c1ccc(F)cc1)N1CCN(c2c(C#N)c(=O)n(C)c3ccc(Br)nc23)CC1 (single isomer, unassigned) [Example 27]", 110),
    ("Cn1c(=O)c(C#N)c(N2CCN(C(c3ccc(F)cc3)c3ccc(F)cc3)CC2)c2nc(C#N)ccc21 [Example 217]", 2300),
    ("COc1ccc(CN2CCN(c3c(C#N)c(=O)n(C)c4ccc(Cl)nc34)CC2)cc1F [Example 279]", 380),
    ("Cc1cccc(O)c1CN1CCN(c2c(C#N)c(=O)n(C)c3ccc(Br)nc23)CC1 [Example 259]", 420),
    ("Cc1cccc(Cl)c1CN1CCN(c2c(C#N)c(=O)n(C)c3ccc(Cl)nc23)CC1 [Example 419]", 81000),
    ("Cn1c(=O)c(C#N)c(N2CCN(C(c3ccc(F)cc3)C3CC3)CC2)c2nc(Br)ccc21 (stereo not drawn) [Example 35]", 140),
    ("CC(c1ccc(F)cc1)N1CCN(c2c(C#N)c(=O)n(CC#N)c3ccc(Br)nc23)CC1 (stereo not drawn) [Example 154]", 45000),
    ("C#CCn1c(=O)c([N+](=O)[O-])c(N2CCN(C(c3ccc(F)cc3)C3CC3)CC2)c2nc(C#N)ccc21 (single isomer, unassigned) [Example 144]", 530),
    ("Cn1c(=O)c(C#N)c(N2CCN(Cc3ccccc3N)CC2)c2nc(Br)ccc21 [Example 211]", 250),
    ("Cn1c(=O)c(C#N)c(N2CCN(Cc3ccccc3OC(F)(F)F)CC2)c2nc(Cl)ccc21 [Example 285]", 910),
    ("Cn1c(=O)c(C#N)c(N2CCN(Cc3ccc(O)c(F)c3)CC2)c2nc(C#N)ccc21 [Example 363]", 150),
    ("CCC(c1ccc(F)cc1)N1CCN(c2c([N+](=O)[O-])c(=O)n(C)c3ccc(C#N)nc23)CC1 (single isomer, unassigned) [Example 33]", 750),
    ("Cn1c(=O)c(C#N)c(N2CCN(Cc3ccccc3NC(=O)Nc3ccccc3)CC2)c2nc(Br)ccc21 [Example 214]", 3100),
    ("CC(=O)Nc1ccccc1CN1CCN(c2c(C#N)c(=O)n(C)c3ccc(Br)nc23)CC1 [Example 215]", 4100),
    ("COCCn1c(=O)c([N+](=O)[O-])c(N2CCN(C(C)c3ccc(F)cc3)CC2)c2nc(C#N)ccc21 (racemic) [Example 148]", 15000),
    ("COc1ccccc1C(c1ccc(F)cc1)N1CCN(c2c([N+](=O)[O-])c(=O)n(C)c3ccc(C#N)nc23)CC1 (single isomer, unassigned) [Example 20]", 3300),
]
